IC50 overview
- target-of-assay: human SLC6A19 and TMEM27 (Homo sapiens, UniProt Q695T7)
- Construct: expressed in transfected cells
- Sequence (Q695T7 whole entry): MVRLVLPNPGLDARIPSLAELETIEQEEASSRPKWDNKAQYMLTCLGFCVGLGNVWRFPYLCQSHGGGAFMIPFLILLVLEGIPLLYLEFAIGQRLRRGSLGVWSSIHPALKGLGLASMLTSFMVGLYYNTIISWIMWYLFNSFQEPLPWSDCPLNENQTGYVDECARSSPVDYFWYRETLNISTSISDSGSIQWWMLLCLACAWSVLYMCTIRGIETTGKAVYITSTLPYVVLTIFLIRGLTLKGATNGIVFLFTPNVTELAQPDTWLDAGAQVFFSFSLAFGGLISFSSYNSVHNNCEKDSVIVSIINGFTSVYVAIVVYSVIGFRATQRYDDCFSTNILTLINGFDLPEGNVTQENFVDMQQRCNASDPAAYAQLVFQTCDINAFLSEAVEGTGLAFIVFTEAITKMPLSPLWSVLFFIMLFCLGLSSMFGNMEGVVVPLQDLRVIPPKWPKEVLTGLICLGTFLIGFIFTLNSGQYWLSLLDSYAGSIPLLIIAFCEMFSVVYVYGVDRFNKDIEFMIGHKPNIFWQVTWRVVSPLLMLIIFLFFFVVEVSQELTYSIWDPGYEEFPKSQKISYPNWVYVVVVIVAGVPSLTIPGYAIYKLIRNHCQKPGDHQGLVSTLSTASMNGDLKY
- Sequence (Q9HBJ8 15-222 partner): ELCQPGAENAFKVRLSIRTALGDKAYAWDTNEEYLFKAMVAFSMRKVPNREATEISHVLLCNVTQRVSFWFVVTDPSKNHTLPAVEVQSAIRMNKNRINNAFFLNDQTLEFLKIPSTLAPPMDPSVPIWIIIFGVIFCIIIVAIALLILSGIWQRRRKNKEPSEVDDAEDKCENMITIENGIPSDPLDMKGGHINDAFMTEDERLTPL
- procedure-summary: Radiolabelled (3H) leucine uptake in CHO cells with doxycycline-inducible expression of human SLC6A19 and TMEM27 (Example B-1)
- Assay type: cell-based
- measurement-setup: CHO cells with doxycycline-inducible expression of human SLC6A19 and TMEM27, read-out: SLC6A19_Radioligand Uptake Assay IC50
- Procedure: The flasks were then incubated (humidified, 37° C. with 5% CO2) for 2 minutes. After incubation, 10 mL of pre-warmed cell culture media was added to each flask. The cell suspension was collected and centrifuged for 5 minutes at 200×g. […] The resuspended cells were counted using the Countess Cell Counting Chamber (Invitrogen) and the cell concentration of the suspension was readjusted to 1 million live cells/mL using pre-warmed cell culture media. […]
readout-name: IC50 (µM)

# molecule, units-symbol, quantitative-result
rows = [
    ("CC1(C(=O)NCc2cc3ccc(OCc4cnsc4)cc3[nH]2)CC1", "µM", 0.119),
    ("CC1(C(=O)NCc2cc3cc(C4(F)CC4)c(OCc4cscn4)cc3[nH]2)CC1", "µM", 8.47),
    ("CC(C)C(=O)NCc1cc2cc(Cl)c(OCc3cscn3)cc2[nH]1", "µM", 0.073),
    ("CC1(C(=O)NCc2cc3cc(Cl)c(OCc4cc(C(F)F)on4)cc3[nH]2)CC1", "µM", 0.261),
    ("CC1(C(=O)NCc2cc3cc(-c4cnco4)c(OCc4cscn4)cc3[nH]2)CC1", "µM", 1),
    ("O=C(NCc1cc2cc(Cl)c(OCc3ccon3)cc2[nH]1)N1CCOCC1", "µM", 0.69),
    ("COC(=O)NCc1cc2cc(F)c(OCc3cc(C)no3)cc2[nH]1", "µM", 1.77),
    ("CC1(C(=O)NCc2cc3cc(Cl)c(OCc4ccc(F)nc4)cc3[nH]2)CC1", "µM", 0.419),
    ("Cc1cc(COc2cc3[nH]c(CNC(=O)C(C)C#N)cc3cc2Cl)on1 (racemic) [Compound 486]", "µM", 0.387),
    ("O=C(NCc1cc2ccc(OCc3ccon3)cc2[nH]1)N1CCC1", "µM", 0.36),
    ("CC1(C(=O)NCc2cc3cc(OC(F)F)c(OCc4cscn4)cc3[nH]2)CC1", "µM", 0.391),
    ("O=C(NCc1cc2cc(Cl)c(OCc3ccccn3)cc2[nH]1)C1CC1", "µM", 0.317),
    ("CC1(C(=O)NCc2cc3c(F)c(Cl)c(OCc4ccon4)cc3[nH]2)CC1", "µM", 0.363),
    ("C[C@@H](O)C(=O)NCc1cc2cc(F)c(OCc3cscn3)cc2[nH]1", "µM", 2.67),
    ("CC(=O)NCc1cc2cc(Cl)c(OCc3cccc(F)n3)cc2[nH]1", "µM", 0.156),
    ("Cc1cc(COc2cc3[nH]c(CNC(=O)C[C@H](C)O)cc3cc2Cl)on1", "µM", 0.91),
    ("CC1(C(=O)NCc2cc3ccc(NCc4ccon4)cc3[nH]2)CC1", "µM", 0.531),
    ("CC1(C(=O)NCc2cc3cc(C4CC4(F)F)c(OCc4ccon4)cc3[nH]2)CC1 (racemic)", "µM", 0.59),
    ("COCC(=O)NCc1cc2cc(Cl)c(OCc3cscn3)cc2[nH]1", "µM", 0.11),
    ("Cc1cc(COc2cc3[nH]c(CNC(=O)CN(C)C)cc3cc2Cl)on1", "µM", 0.587),
    ("O=C(NCc1cc2cc(Cl)c(OCc3cscn3)cc2[nH]1)C1(F)CC1", "µM", 0.139),
    ("CC1(C(=O)NCc2cc3cc(Cl)c(OCc4cscn4)cc3[nH]2)COC1", "µM", 0.279),
    ("C[C@@H]1CCCN1C(=O)NCc1cc2cc(F)c(OCc3cscn3)cc2[nH]1", "µM", 0.174),
    ("CC1CCCN1C(=O)NCc1cc2ccc(OCc3ccon3)cc2[nH]1 (stereo not drawn)", "µM", 0.45),
    ("Cc1cc(COc2cc3[nH]c(CNC(=O)C(O)C4CC4)cc3cc2Cl)on1 (stereo not drawn)", "µM", 1.45),
    ("CC1(C(=O)NCc2cc3ccc(OCc4c[nH]nn4)cc3[nH]2)CC1", "µM", 6.78),
    ("O=C(NCc1cc2cc(C(F)(F)F)c(OCc3ccon3)cc2[nH]1)N1CCCC1", "µM", 0.408),
    ("CC1(C(=O)NCc2cc3cc(Cl)c(OCc4cc5ccccn5n4)cc3[nH]2)CC1", "µM", 2.83),
    ("O=C(NCc1cc2cc(Cl)c(OCc3cscn3)cc2[nH]1)C1CCC1", "µM", 0.178),
    ("O=C(NCc1cc2cc(Cl)c(OCc3cscn3)cc2[nH]1)[C@H]1C[C@H]1F", "µM", 0.141),
    ("C[C@@H]1CCN(C(=O)NCc2cc3cc(F)c(OCc4ccon4)cc3[nH]2)C1", "µM", 0.339),
    ("Cc1cc(COc2cc3[nH]c(CNC(=O)C[C@H]4CCOC4)cc3cc2Cl)on1", "µM", 5.29),
    ("CC(=O)NCc1cc2cc(F)c(NCc3ccon3)cc2[nH]1", "µM", 3.17),
]
